Reported Ratio IC50 values for the following compounds.
Species on record: Homo sapiens
Test: Selectivity index, ratio of IC50 for recombinant human MAO-A to IC50 for recombinant human MAO-B

Some compounds with recorded Ratio IC50:
input: State the recorded Ratio IC50 for this entry: `CC(=O)Oc1ccccc1-c1cc2cc(C)ccc2oc1=O`
output: > 107

input: Do the same for `Cc1ccc2oc(=O)c(-c3cccc(OCc4ccccc4)c3)cc2c1` please
output: > 498

Further cases:
input: Using the record for `Cc1ccc2oc(=O)c(-c3ccc(OCc4ccccc4)cc3)cc2c1` , report its Ratio IC50.
output: > 947
